Each item that follows carries a reported selectivity ratio.
test.summary: Selectivity index, ratio of CC50 for human THLE3 cells to EC50 for multidrug resistant Staphylococcus aureus ATCC BAA-44
Format: toxicity
experimental.context: read-out: Ratio CC50/EC50
Keep the answer to the number alone.

[
  {
    "chemical.structure": "O=S(=O)(Nc1ccc2oc(-c3ccc(NS(=O)(=O)c4ccc(Cl)s4)cc3)nc2c1)c1ccc(Cl)c(Cl)c1",
    "measured.property": "selectivity ratio",
    "reported": 46
  }
]

Lab note: next compound to report on.
get_value(item= O=[N+]([O-])c1cc(S(=O)(=O)Nc2ccc(-c3nc4cc(NS(=O)(=O)c5ccc(Cl)s5)ccc4o3)cc2)ccc1Cl , readout=selectivity ratio) returns 10

====

measurement.target: Thiosulfate sulfurtransferase (Homo sapiens, UniProt Q16762)
Sequence (Q16762 whole entry): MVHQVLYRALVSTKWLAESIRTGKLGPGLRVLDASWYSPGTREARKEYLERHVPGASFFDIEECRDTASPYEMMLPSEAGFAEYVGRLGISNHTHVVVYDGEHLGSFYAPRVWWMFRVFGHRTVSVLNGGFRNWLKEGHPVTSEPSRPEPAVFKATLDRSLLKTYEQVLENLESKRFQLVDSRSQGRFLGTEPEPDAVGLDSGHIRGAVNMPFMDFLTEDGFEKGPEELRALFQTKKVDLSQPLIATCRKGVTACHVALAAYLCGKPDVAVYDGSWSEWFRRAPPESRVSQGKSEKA
measured.property: IC50

[
  {
    "chemical.structure": "O=[N+]([O-])c1ccc(S(=O)(=O)Nc2ccc(-c3nc4cc(NS(=O)(=O)c5ccc([N+](=O)[O-])cc5)ccc4o3)cc2)cc1",
    "measured.property": "IC50",
    "reported": "> 100 µM"
  },
  {
    "chemical.structure": "O=S(=O)(Nc1ccc(-c2nc3cc(NS(=O)(=O)c4ccc(Cl)s4)ccc3o2)cc1)c1cccc(C(F)(F)F)c1",
    "measured.property": "IC50",
    "reported": "> 100 µM"
  },
  {
    "chemical.structure": "O=S(=O)(Nc1ccc2oc(-c3ccc(NS(=O)(=O)c4ccc(Cl)s4)cc3)nc2c1)c1ccc(Cl)c(Cl)c1",
    "measured.property": "IC50",
    "reported": "> 100 µM"
  }
]

get_value(item= O=S(=O)(Nc1ccc(-c2nc3cc(NS(=O)(=O)c4cccc(C(F)(F)F)c4)ccc3o2)cc1)c1cccc(C(F)(F)F)c1 , readout=IC50) returns > 100 µM

get_value(item= O=[N+]([O-])c1cc(S(=O)(=O)Nc2ccc3oc(-c4ccc(NS(=O)(=O)c5ccc(Cl)s5)cc4)nc3c2)ccc1Cl , readout=IC50) returns > 100 µM

get_value(item= O=S(=O)(Nc1ccc(-c2nc3cc(NS(=O)(=O)c4ccc(Cl)cc4)ccc3o2)cc1)c1ccc(Cl)cc1 , readout=IC50) returns > 100 µM

get_value(item= O=S(=O)(Nc1ccc2oc(-c3ccc(NS(=O)(=O)c4ccc(Cl)s4)cc3)nc2c1)c1ccc(Cl)c(C(F)(F)F)c1 , readout=IC50) returns > 100 µM

get_value(item= O=S(=O)(Nc1ccc(-c2nc3cc(NS(=O)(=O)c4ccc(Cl)s4)ccc3o2)cc1)c1ccc(Cl)s1 , readout=IC50) returns > 100 µM

get_value(item= O=[N+]([O-])c1cc(S(=O)(=O)Nc2ccc(-c3nc4cc(NS(=O)(=O)c5ccc(Cl)s5)ccc4o3)cc2)ccc1Cl , readout=IC50) returns 53 µM

get_value(item= O=S(=O)(Nc1ccc2oc(-c3ccc(NS(=O)(=O)c4ccc(Cl)s4)cc3)nc2c1)c1cccc(C(F)(F)F)c1 , readout=IC50) returns > 100 µM

get_value(item= O=S(=O)(Nc1ccc2oc(-c3ccc(NS(=O)(=O)c4cccc5nonc45)cc3)nc2c1)c1ccc(Cl)s1 , readout=IC50) returns 72 µM

get_value(item= O=S(=O)(Nc1ccc(-c2nc3cc(NS(=O)(=O)c4ccc(Cl)s4)ccc3o2)cc1)c1ccc(Cl)c(C(F)(F)F)c1 , readout=IC50) returns > 100 µM

====

Each item that follows carries a reported pIC50.
measurement.target: HSP60/HSP10 (Homo sapiens)
Sequence (P10809 whole entry): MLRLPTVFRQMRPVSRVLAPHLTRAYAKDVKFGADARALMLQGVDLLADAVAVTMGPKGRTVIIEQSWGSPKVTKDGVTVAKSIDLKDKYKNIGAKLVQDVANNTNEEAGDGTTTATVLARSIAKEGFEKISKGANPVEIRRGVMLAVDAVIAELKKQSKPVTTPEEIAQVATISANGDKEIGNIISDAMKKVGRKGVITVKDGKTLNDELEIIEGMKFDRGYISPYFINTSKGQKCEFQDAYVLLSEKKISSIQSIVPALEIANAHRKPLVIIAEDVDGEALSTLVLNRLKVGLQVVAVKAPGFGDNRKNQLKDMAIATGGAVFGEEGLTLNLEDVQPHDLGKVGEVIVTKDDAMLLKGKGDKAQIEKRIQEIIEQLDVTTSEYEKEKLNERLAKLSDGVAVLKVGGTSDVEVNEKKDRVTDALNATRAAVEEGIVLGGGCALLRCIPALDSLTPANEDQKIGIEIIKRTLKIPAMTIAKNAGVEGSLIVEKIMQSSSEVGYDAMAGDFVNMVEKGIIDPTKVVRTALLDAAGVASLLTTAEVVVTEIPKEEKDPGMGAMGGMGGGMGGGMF
Sequence (P61604 whole entry, further chain): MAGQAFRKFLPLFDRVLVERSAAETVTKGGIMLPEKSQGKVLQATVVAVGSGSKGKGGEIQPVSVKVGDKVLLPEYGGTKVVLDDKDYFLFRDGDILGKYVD
test.summary: Inhibition of human N-terminal octa-His-tagged HSP60 expressed in Escherichia coli Rosetta(DE3) pLysS/human HSP10 expressed in Escherichia coli Rosetta(DE3) assessed as reduction in HSP60/HSP10-mediated denatured MDH refolding by measuring MDH enzyme activity using sodium mesoxalate as substrate after 40 to 60 mins by spectrometric analysis
Hey, just a heads up that pIC50 is the negative log base 10 of the concentration in molar.

Solved entries (count: 5):
[
  {
    "chemical.structure": "O=S(=O)(Nc1ccc2oc(-c3ccc(NS(=O)(=O)c4ccc(Cl)s4)cc3)nc2c1)c1cccc(C(F)(F)F)c1",
    "pIC50": 5.30
  },
  {
    "chemical.structure": "O=[N+]([O-])c1cc(S(=O)(=O)Nc2ccc3oc(-c4ccc(NS(=O)(=O)c5ccc(Cl)s5)cc4)nc3c2)ccc1Cl",
    "pIC50": 6.00
  },
  {
    "chemical.structure": "O=S(=O)(Nc1ccc2oc(-c3ccc(NS(=O)(=O)c4cccc5nonc45)cc3)nc2c1)c1ccc(Cl)s1",
    "pIC50": 4.96
  },
  {
    "chemical.structure": "O=S(=O)(Nc1ccc(-c2nc3cc(NS(=O)(=O)c4ccc(Cl)s4)ccc3o2)cc1)c1ccc(Cl)s1",
    "pIC50": 5.23
  },
  {
    "chemical.structure": "O=[N+]([O-])c1cc(S(=O)(=O)Nc2ccc(-c3nc4cc(NS(=O)(=O)c5ccc(Cl)s5)ccc4o3)cc2)ccc1Cl",
    "pIC50": 5.68
  }
]

# lookup: O=S(=O)(Nc1ccc(-c2nc3cc(NS(=O)(=O)c4cccc(C(F)(F)F)c4)ccc3o2)cc1)c1cccc(C(F)(F)F)c1 on HSP60/HSP10 (Homo sapiens), pIC50 = 4.24

# lookup: O=[N+]([O-])c1ccc(S(=O)(=O)Nc2ccc(-c3nc4cc(NS(=O)(=O)c5ccc([N+](=O)[O-])cc5)ccc4o3)cc2)cc1 on HSP60/HSP10 (Homo sapiens), pIC50 = 4.29

====

test.summary: Cytotoxicity against human THLE3 cells after 48 hrs by Alamar blue assay
Type: cell-based
Each item that follows carries a reported CC50 at 48 h.
Just the number please, in µM, no unit attached.

[
  {
    "chemical.structure": "O=S(=O)(Nc1ccc(-c2nc3cc(NS(=O)(=O)c4ccc(Cl)cc4)ccc3o2)cc1)c1ccc(Cl)cc1",
    "CC50 at 48 h / µM": 18
  }
]

get_value(item= O=[N+]([O-])c1ccc(S(=O)(=O)Nc2ccc(-c3nc4cc(NS(=O)(=O)c5ccc([N+](=O)[O-])cc5)ccc4o3)cc2)cc1 , readout=CC50 at 48 h) returns 47

get_value(item= O=[N+]([O-])c1cc(S(=O)(=O)Nc2ccc3oc(-c4ccc(NS(=O)(=O)c5ccc(Cl)s5)cc4)nc3c2)ccc1Cl , readout=CC50 at 48 h) returns 11

get_value(item= O=S(=O)(Nc1ccc(-c2nc3cc(NS(=O)(=O)c4ccc(Cl)s4)ccc3o2)cc1)c1ccc(Cl)c(C(F)(F)F)c1 , readout=CC50 at 48 h) returns 22

get_value(item= O=S(=O)(Nc1ccc(-c2nc3cc(NS(=O)(=O)c4ccc(Cl)s4)ccc3o2)cc1)c1cccc(C(F)(F)F)c1 , readout=CC50 at 48 h) returns 27

get_value(item= O=S(=O)(Nc1ccc2oc(-c3ccc(NS(=O)(=O)c4ccc(Cl)s4)cc3)nc2c1)c1ccc(Cl)c(C(F)(F)F)c1 , readout=CC50 at 48 h) returns 27

get_value(item= O=S(=O)(Nc1ccc(-c2nc3cc(NS(=O)(=O)c4cccc(C(F)(F)F)c4)ccc3o2)cc1)c1cccc(C(F)(F)F)c1 , readout=CC50 at 48 h) returns 24

====

Tested on: Staphylococcus aureus
test.summary: Antibacterial activity against multidrug resistant Staphylococcus aureus ATCC BAA-44 after 6 to 8 hrs
Type: functional, organism-based
measured.property: pEC50
Hey, just a heads up that pEC50 is the negative log base 10 of the concentration in molar.

Solved entries (count: 8):
[
  {
    "chemical.structure": "O=S(=O)(Nc1ccc(-c2nc3cc(NS(=O)(=O)c4ccc(Cl)s4)ccc3o2)cc1)c1ccc(Cl)s1",
    "measurement.target": "Staphylococcus aureus",
    "pEC50": 5.34
  },
  {
    "chemical.structure": "O=S(=O)(Nc1ccc(-c2nc3cc(NS(=O)(=O)c4ccc(Cl)s4)ccc3o2)cc1)c1ccc(Cl)c(C(F)(F)F)c1",
    "measurement.target": "Staphylococcus aureus",
    "pEC50": 5.70
  },
  {
    "chemical.structure": "O=[N+]([O-])c1cc(S(=O)(=O)Nc2ccc3oc(-c4ccc(NS(=O)(=O)c5ccc(Cl)s5)cc4)nc3c2)ccc1Cl",
    "measurement.target": "Staphylococcus aureus",
    "pEC50": 6.01
  },
  {
    "chemical.structure": "O=[N+]([O-])c1ccc(S(=O)(=O)Nc2ccc(-c3nc4cc(NS(=O)(=O)c5ccc([N+](=O)[O-])cc5)ccc4o3)cc2)cc1",
    "measurement.target": "Staphylococcus aureus",
    "pEC50": 5.14
  },
  {
    "chemical.structure": "O=S(=O)(Nc1ccc(-c2nc3cc(NS(=O)(=O)c4cccc(C(F)(F)F)c4)ccc3o2)cc1)c1cccc(C(F)(F)F)c1",
    "measurement.target": "Staphylococcus aureus",
    "pEC50": 5.70
  },
  {
    "chemical.structure": "O=S(=O)(Nc1ccc2oc(-c3ccc(NS(=O)(=O)c4ccc(Cl)s4)cc3)nc2c1)c1ccc(Cl)c(Cl)c1",
    "measurement.target": "Staphylococcus aureus",
    "pEC50": 6.28
  },
  {
    "chemical.structure": "NCc1ccc(S(=O)(=O)Nc2ccc(-c3nc4cc(NS(=O)(=O)c5ccc(Cl)s5)ccc4o3)cc2)cc1",
    "measurement.target": "Staphylococcus aureus",
    "pEC50": 4.72
  },
  {
    "chemical.structure": "O=S(=O)(Nc1ccc2oc(-c3ccc(NS(=O)(=O)c4ccc(Cl)s4)cc3)nc2c1)c1cccc(C(F)(F)F)c1",
    "measurement.target": "Staphylococcus aureus",
    "pEC50": 5.96
  }
]

get_value(item= O=[N+]([O-])c1cc(S(=O)(=O)Nc2ccc(-c3nc4cc(NS(=O)(=O)c5ccc(Cl)s5)ccc4o3)cc2)ccc1Cl , readout=pEC50) returns 5.77
